B1: ZNF263 (parent)
chain: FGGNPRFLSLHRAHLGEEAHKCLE

variants of: B1; assay: protein stability index of a GFP-peptide fusion (GPS, HEK-293T) (PSI 1-6); higher = more stable; details: c terminus: a fixed tail appended;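 also: lentivirally expressed fusions sorted by FACS into six bins by GFP to DsRed ratio, PSI derived from sequencing read proportions per bin multiplied by bin number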
Listed below: protein stability index values for each entry.
// response body must contain only the number

Worked cases, protein stability index given:
[[record]]
polymer_sequence = "FGGNPRFLSLHRAHLGEEAHDCLE [K21D]"
assay_result = 1.86

[[record]]
polymer_sequence = "FGNNPRFLSLHRAHLGEEAHKCLE [G3N]"
assay_result = 2.24


Now take the following variant into account.
Incoming: protein stability index for FGGNPRELSLHRAHLGEEAHKCLE [F7E] ?
Outgoing: 4
